The values you see were collected from ChEMBL document CHEMBL4689842.

Hi there, I'd appreciate the recorded Population Membrane Permeable-Phenotype (%) for every entry that follows.
- Tested on: HEK-293T
- EXPERIMENT DESCRIPTION: Multiplex assay against HEK293T
- Assay type: toxicity, cell-based
- PARTICULARS: human, 12 h, 1 µM, compound concentration 1 uM, replicate 1
Your answer should be a plain number; it is taken to be in %.

Which measured Population Membrane Permeable-Phenotype (%) value corresponds to Cc1nc(Nc2n[nH]c3c2CN(C(=O)N[C@H](CN(C)C)c2ccccc2)C3(C)C)c2sccc2n1 ?
2

Quick one: Population Membrane Permeable-Phenotype (%) for Cc1nc(-c2ccc(-c3ccc(C(=O)N4CCc5cc6c(cc54)C4(CCN(C)CC4)CO6)cc3)c(C)c2)no1 ?
2

Look up Population Membrane Permeable-Phenotype (%): C[C@@H](NCCCc1cccc(C(F)(F)F)c1)c1cccc2ccccc12.Cl [CINACALCET HYDROCHLORIDE]
2

Given the compound O=C1NCN(c2ccccc2)C12CCN(CCCOc1ccc(F)cc1)CC2 [SPIRAMIDE] , what is its reported Population Membrane Permeable-Phenotype (%)?
4

====

- Test system: HEK-293T
- EXPERIMENT DESCRIPTION: Multiplex assay against HEK293T
- Assay type: toxicity, cell-based
- PARTICULARS: human, 12 h, 10 µM, compound concentration 10 uM, replicate 2
PARAMETER: Population Apoptotic (%)
// return numeric value only (unit: %, not printed)

Recorded Population Apoptotic (%) for CC[C@H](C)C(=O)O[C@H]1C[C@@H](C)C=C2C=C[C@H](C)[C@H](CC[C@@H]3C[C@@H](O)CC(=O)O3)[C@H]21 with HEK-293T, please?
10

Find Population Apoptotic (%) (HEK-293T) for the entry CN(C)CC#Cc1ccc(OCCCc2sc(N3CCc4cccc(C(=O)Nc5nc6ccccc6s5)c4C3)nc2C(=O)O)c(F)c1
18

Please tell me: Population Apoptotic (%) of CCN(CC)CCCCNc1ncc2cc(-c3cc(OC)cc(OC)c3)c(NC(=O)NC(C)(C)C)nc2n1 , system HEK-293T?
28

# returns recorded Population Apoptotic (%) (system: HEK-293T) for CC(C)(O)CNc1ncc(-c2ccnc(Nc3ccnc(Cl)c3)n2)c(CC2CC2)n1
52

Notebook entry, HEK-293T assay: Population Apoptotic (%) of CN(C)C(=O)/C(C#N)=C/c1ccc(-c2nc3cnc4[nH]ccc4c3n2C2CCCCC2)o1 = ?
32

Tell me reported Population Apoptotic (%) for CNc1nc(NCc2ccc(NS(C)(=O)=O)cc2Cl)cc(-c2ccccn2)n1 , tested with HEK-293T.
25

Test system HEK-293T; read-out Population Apoptotic (%); what value for OC1(c2ccc(Cl)cc2)CCN(Cc2c[nH]c3ccccc23)CC1 ?
63

Query Population Apoptotic (%) on HEK-293T for CN1CCCC(n2nc(Cc3ccc(Cl)cc3)c3ccccc3c2=O)CC1.Cl (configuration not stated) [AZELASTINE HYDROCHLORIDE]
89

Observed Population Apoptotic (%) on HEK-293T for COc1cccc([C@@H](C)NCCCc2ccccc2Cl)c1.Cl [TECALCET HYDROCHLORIDE] , please.
59

Param readout= Population Apoptotic (%); system= HEK-293T; entry= Cc1cc(C)cc(-c2cnc3cc(Cl)c(-c4cccc(O)c4)cc3c2OCCCN)c1 ; returns value.
90

Enter reported Population Apoptotic (%) observed with HEK-293T for O=C1NCN(c2ccccc2)C12CCN(CCCOc1ccc(F)cc1)CC2 [SPIRAMIDE]
19

HEK-293T / Population Apoptotic (%) / Cc1nc(-c2cn3c(n2)-c2ccc(-c4cnn(C(C)(C)C(N)=O)c4)cc2OCC3)n(C(C)C)n1 : value?
11

So what Population Apoptotic (%) did C=CC(=O)Nc1cc2c(Nc3ccc(F)c(Cl)c3)ncnc2cc1OCCCN1CCOCC1.Cl.Cl [CANERTINIB DIHYDROCHLORIDE] get with HEK-293T?
8

# returns recorded Population Apoptotic (%) (system: HEK-293T) for COc1cc2nccc(Oc3ccc(NC(=O)Nc4cc(C)on4)c(Cl)c3)c2cc1OC.O
59

Lab note: need Population Apoptotic (%) for Cc1c(-c2ccc(O)cc2)n(Cc2ccc(OCCN3CCCCCC3)cc2)c2ccc(O)cc12 on HEK-293T, anyone have it?
88

Value wanted: Population Apoptotic (%) (HEK-293T) of entry COc1cc(-n2cnc3cc(-c4ccc(Cl)cc4)sc3c2=O)ccc1OCCN1CCCC1
79

Value wanted: Population Apoptotic (%) (HEK-293T) of entry CN1CCN(c2ccc(OC(F)(F)F)c(Nc3ncc4c(n3)-c3c(c(C(N)=O)nn3CCO)CC4)c2)CC1
31

====

- Tested on: HEK-293T
- EXPERIMENT DESCRIPTION: Multiplex assay against HEK293T
- Format: toxicity, cell-based
- PARTICULARS: human, 12 h, 10 µM, compound concentration 10 uM, replicate 2
PARAMETER: Population Membrane Permeable-Phenotype (%)
# output: bare number, implied unit %

Item: Cc1csc2c(N[C@@H](C)CN3CCN(S(=O)(=O)c4ccc(Cl)c(Cl)c4)CC3)ncnc12 Test system: HEK-293T Read-out: Population Membrane Permeable-Phenotype (%) Value: ?
9

// map O=C1NCN(c2ccccc2)C12CCN(CCCOc1ccc(F)cc1)CC2 [SPIRAMIDE] to recorded Population Membrane Permeable-Phenotype (%) (system: HEK-293T)
7

Kindly state the measured Population Membrane Permeable-Phenotype (%) obtained for c1cn2cc(-c3ccc4cn[nH]c4c3)nc(Nc3ccc(N4CCOCC4)cc3)c2n1 [ENTOSPLETINIB] with HEK-293T.
7

Lab request: please report Population Membrane Permeable-Phenotype (%) under test system HEK-293T for CNc1nc(NCc2ccc(NS(C)(=O)=O)cc2Cl)cc(-c2ccccn2)n1
0

API: value(readout=Population Membrane Permeable-Phenotype (%), system=HEK-293T) for record Cc1[nH]c(/C=C2\C(=O)Nc3ccc(S(=O)(=O)N(C)c4cccc(Cl)c4)cc32)c(C)c1C(=O)N1CCN(C)CC1
19

Report Population Membrane Permeable-Phenotype (%) for Cn1cc(-c2[nH]c3cc(NC(=O)[C@H](N)C4CCCCC4)cc4c3c2C=NNC4=O)cn1 tested on HEK-293T.
6

Lab request: please report Population Membrane Permeable-Phenotype (%) under test system HEK-293T for COc1cc2nccc(Oc3ccc(NC(=O)Nc4cc(C)on4)c(Cl)c3)c2cc1OC.O
8

What Population Membrane Permeable-Phenotype (%) appears in the records for this compound with HEK-293T? CCN(CC)CCCCNc1ncc2cc(-c3cc(OC)cc(OC)c3)c(NC(=O)NC(C)(C)C)nc2n1 [PD-173074]
22

Param readout= Population Membrane Permeable-Phenotype (%); system= HEK-293T; entry= Cc1nc(-c2cn3c(n2)-c2ccc(-c4cnn(C(C)(C)C(N)=O)c4)cc2OCC3)n(C(C)C)n1 [TASELISIB] ; returns value.
1

====

- Tested on: HEK-293T
- EXPERIMENT DESCRIPTION: Multiplex assay against HEK293T
- Format: toxicity, cell-based
- PARTICULARS: human, 12 h, 1 µM, compound concentration 1 uM, replicate 2
Exercise: state measured Population Normal (%) for each of the molecules provided.
Numeric only. Scale: %

Field request: Population Normal (%) | item: C=CC(=O)Nc1cccc(C(=O)Nc2ccc(Nc3cc(-c4[nH]c(SC)nc4C)ccn3)cc2)c1
94

Look up Population Normal (%) for this molecule: CC(C)NCC(O)COc1ccc(CCOCC2CC2)cc1.Cl (stereo unspecified) [BETAXOLOL HYDROCHLORIDE]
98

Look up Population Normal (%) for this molecule: OC1(c2ccc(Cl)cc2)CCN(Cc2c[nH]c3ccccc23)CC1
93

Can you share its Population Normal (%)? I mean this molecule: NC(=O)Nc1cc(-c2cccc(F)c2)sc1C(=O)N[C@H]1CCCNC1 [AZD-7762]
94

What measured Population Normal (%) goes with COc1ncc(-c2ccc3nccc(-c4ccnnc4)c3c2)cc1NS(=O)(=O)c1ccc(F)cc1F [OMIPALISIB] ?
93

Bench note: what Population Normal (%) did C[C@@H](NCCCc1cccc(C(F)(F)F)c1)c1cccc2ccccc12.Cl [CINACALCET HYDROCHLORIDE] show?
96

What measured Population Normal (%) goes with C=CC(=O)Nc1cc2c(Nc3ccc(F)c(Cl)c3)ncnc2cc1OCCCN1CCOCC1.Cl.Cl [CANERTINIB DIHYDROCHLORIDE] ?
92

I have this molecule here, COc1cc(-n2cnc3cc(-c4ccc(Cl)cc4)sc3c2=O)ccc1OCCN1CCCC1 , and I need its recorded Population Normal (%).
95

Quick one: Population Normal (%) for CN(C)C(=O)N[C@H]1CC[C@H](CCN2CCN(c3cccc(Cl)c3Cl)CC2)CC1.Cl [CARIPRAZINE HYDROCHLORIDE] ?
95

Can you share its Population Normal (%)? I mean this molecule: CNc1nc(NCc2ccc(NS(C)(=O)=O)cc2Cl)cc(-c2ccccn2)n1
97

Fill in the blank: the reported Population Normal (%) of Cc1cc(C)cc(-c2cnc3cc(Cl)c(-c4cccc(O)c4)cc3c2OCCCN)c1 is ____.
96
